- Target of assay: βAbauCA (CanB) (Acinetobacter baumannii, UniProt A0A7U3Y636)
- Construct: gene AB57_1063; oligomer not determined here
- Sequence (A0A7U3Y636 1-204): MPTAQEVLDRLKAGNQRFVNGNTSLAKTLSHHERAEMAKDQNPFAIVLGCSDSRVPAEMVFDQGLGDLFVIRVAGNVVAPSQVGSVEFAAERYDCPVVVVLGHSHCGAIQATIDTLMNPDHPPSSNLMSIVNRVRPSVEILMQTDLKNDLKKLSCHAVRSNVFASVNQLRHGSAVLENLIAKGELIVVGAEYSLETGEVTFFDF
- Assay name: stopped-flow CO2 hydrase assay
- Assay type: biochemical
- Stated conditions: CO2 substrate, […] TRIS pH […] NaClO4, […] °C, […] min preincubation
What log10(Ki) was measured for each of the following?
Log scale reminder: Ki in nM, then log10 taken.

## Task Item Nc1ccc(S(=O)(=O)NCCc2ccc(S(N)(=O)=O)cc2)cc1 [compound 24, 24] has what recorded log10(Ki)?
## Result 2.51

## Task Item NS(=O)(=O)c1ccc(N2CCCCS2(=O)=O)cc1 [SLT] has what recorded log10(Ki)?
## Result 2.73

## Task Item CCN[C@H]1CN(CCCOC)S(=O)(=O)c2sc(S(N)(=O)=O)cc21 [BRZ, Brinzolamide] has what recorded log10(Ki)?
## Result 2.23

## Task Item NS(=O)(=O)c1cc2c(cc1Cl)NCNS2(=O)=O [HCT] has what recorded log10(Ki)?
## Result 2.94

## Task Item Cn1nc(S(N)(=O)=O)sc1=N [compound 14, 14] has what recorded log10(Ki)?
## Result 2.78

## Task Item Nc1ccc(S(=O)(=O)NCc2ccc(S(N)(=O)=O)cc2)cc1 [compound 23, 23] has what recorded log10(Ki)?
## Result 2.50

## Task Item Nc1cc(Cl)c(S(N)(=O)=O)cc1S(N)(=O)=O [compound 12, 12] has what recorded log10(Ki)?
## Result 3.08

## Task Item CCN1CCCC1CNC(=O)c1cc(S(N)(=O)=O)ccc1OC (stereo not drawn) [SLP] has what recorded log10(Ki)?
## Result 3.84

## Task Item Nc1nnc(S(N)(=O)=O)s1 [compound 13, 13] has what recorded log10(Ki)?
## Result 2.65

###

- Target of assay: βAbauCA (CanB) (Acinetobacter baumannii, UniProt A0A7U3Y636)
- Construct: gene AB57_1063; oligomer not determined here
- Assay name: stopped-flow CO2 hydrase assay
- Assay type: biochemical
- Stated conditions: CO2 substrate, […] TRIS pH […] NaClO4, […] °C, […] min preincubation
What Ki was measured for each of the following?
// return numeric value only (unit: nM, not printed)

## Task Ki of Nc1ccc(S(=O)(=O)Nc2nnc(S(N)(=O)=O)s2)cc1 [compound 20, 20] on βAbauCA (CanB) (Acinetobacter baumannii, UniProt A0A7U3Y636)?
## Result 344

## Task Ki of CC1(C)O[C@@H]2[C@@H](CO[C@@]3(COS(N)(=O)=O)OC(C)(C)O[C@@H]23)O1 [TPM, topiramate] on βAbauCA (CanB) (Acinetobacter baumannii, UniProt A0A7U3Y636)?
## Result 2770

## Task Ki of NS(=O)(=O)c1nnc(NS(=O)(=O)c2ccccc2)s1 [BZA, Benzolamide] on βAbauCA (CanB) (Acinetobacter baumannii, UniProt A0A7U3Y636)?
## Result 113

## Task Ki of Nc1cc(C(F)(F)F)c(S(N)(=O)=O)cc1S(N)(=O)=O [compound 11, 11] on βAbauCA (CanB) (Acinetobacter baumannii, UniProt A0A7U3Y636)?
## Result 928

###

- Target of assay: βAbauCA (CanB) (Acinetobacter baumannii)
- Construct: gene AB57_1063; oligomer not determined here
- Assay name: stopped-flow CO2 hydrase assay
- Type: biochemical
- Stated conditions: CO2 substrate, […] TRIS pH […] NaClO4, […] °C, […] min preincubation
Friendly reminder: Ki below 500 nM is True, at or above is False.

## Task For this compound, is Ki lower than 500 nM? `NS(=O)(=O)c1ccc(C(=O)O)cc1`
## Result False

## Task For this compound, is Ki lower than 500 nM? `Nc1ccc(S(=O)(=O)Nc2ccc(S(N)(=O)=O)cc2)cc1`
## Result True

## Task For this compound, is Ki lower than 500 nM? `NS(=O)(=O)c1ccc(CCO)cc1`
## Result False

## Task For this compound, is Ki lower than 500 nM? `Cc1ccc(S(N)(=O)=O)cc1`
## Result False

## Task For this compound, is Ki lower than 500 nM? `Cc1ccc(-c2cc(C(F)(F)F)nn2-c2ccc(S(N)(=O)=O)cc2)cc1`
## Result True

###

- Target of assay: βAbauCA (CanB) (Acinetobacter baumannii)
- Construct: gene AB57_1063; oligomer not determined here
- Assay name: stopped-flow CO2 hydrase assay
- Format: biochemical
- Stated conditions: CO2 substrate, […] TRIS pH […] NaClO4, […] °C, […] min preincubation
What Ki was measured for each of the following?
// return numeric value only (unit: nM, not printed)

## Task Item `CC(=O)Nc1nnc(S(N)(=O)=O)s1` has what recorded Ki?
## Result 191

## Task Item `NS(=O)(=O)c1cc(Cl)c(Cl)c(S(N)(=O)=O)c1` has what recorded Ki?
## Result 472

## Task Item `CCN[C@H]1C[C@H](C)S(=O)(=O)c2sc(S(N)(=O)=O)cc21` has what recorded Ki?
## Result 232

## Task Item `NS(=O)(=O)c1ccc(O)cc1` has what recorded Ki?
## Result 625

## Task Item `Nc1nccc(Nc2ccc(S(N)(=O)=O)cc2)n1` has what recorded Ki?
## Result 407

## Task Item `Cc1onc(-c2ccccc2)c1-c1ccc(S(N)(=O)=O)cc1` has what recorded Ki?
## Result 215

## Task Item `O=C1NS(=O)(=O)c2ccccc21` has what recorded Ki?
## Result 7490

## Task Item `NS(=O)(=O)Cc1noc2ccccc12` has what recorded Ki?
## Result 2340

## Task Item `CC(=O)N=c1sc(S(N)(=O)=O)nn1C` has what recorded Ki?
## Result 249

## Task Item `NS(=O)(=O)c1cc(Cl)cc(Cl)c1O` has what recorded Ki?
## Result 4160

## Task Item `NS(=O)(=O)c1ccc(CO)cc1` has what recorded Ki?
## Result 700

###

- Target of assay: hCA I (Homo sapiens)
- Construct: gene CA1
- Sequence (P00915 2-261): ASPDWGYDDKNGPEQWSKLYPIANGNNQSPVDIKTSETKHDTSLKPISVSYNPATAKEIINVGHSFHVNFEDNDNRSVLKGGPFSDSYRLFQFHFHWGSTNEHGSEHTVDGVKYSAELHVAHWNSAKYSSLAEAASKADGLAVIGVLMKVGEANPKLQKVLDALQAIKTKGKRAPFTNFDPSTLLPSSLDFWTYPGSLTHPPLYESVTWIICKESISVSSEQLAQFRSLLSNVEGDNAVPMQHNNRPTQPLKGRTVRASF
- Assay name: stopped-flow CO2 hydrase assay
- Assay type: biochemical
- Stated conditions: read-out: KI (nM) ^a / CA I
Measured attribute: Ki (nM)
// return numeric value only (unit: nM, not printed)

## Task Item Cc1ccc(S(N)(=O)=O)cc1 [compound 4, 4] has what recorded Ki?
## Result 78500

Data credit: paper PMC11594608
